Hi there, I'd appreciate the recorded IC50 for every entry that follows.
- TARGET_UNDER_TEST: human PAR4 (Homo sapiens, UniProt Q96RI0)
- TEST_PROTOCOL: PAR4 FLIPR assay: antagonism of agonist-peptide-induced calcium mobilization in PAR4-expressing HEK293 cells
- CONDITION_SET: H-Ala-Phe(4-F)-[…]NH2-induced intracellular calcium mobilization, 11-point curves
Quick note: give the figure in nM, leave out the unit.

### Prompt Please report the recorded IC50 for COc1cnc2c(-c3nc4c(Cl)c(F)c(OCCOC(=O)NCc5cn(C)cn5)cc4s3)cc(C)cc2n1 [Example 397] .
### Response 210

### Prompt Please report the recorded IC50 for COc1cnc2c(-c3nc4cc(F)c(OCC(COCC(C)C)OC(=O)Nc5cnc(C)nc5)cc4s3)cc(C)cc2n1 (racemic) [Example 525] .
### Response 2.3

### Prompt Please report the recorded IC50 for COCc1cnc2c(-c3nc4c(C)cc(OC)cc4s3)cc(C#N)cc2n1 [Example 233] .
### Response 0.4

### Prompt Please report the recorded IC50 for COCc1cnc2c(-c3cc4ccccc4o3)cc(C)cc2n1 [Example 195] .
### Response 32

### Prompt Please report the recorded IC50 for COc1cc(C(O)C(F)(F)F)c2nc(-c3cc(C)cc4nc(OC)cnc34)sc2c1 (stereo not drawn) [Example 174] .
### Response 3

### Prompt Please report the recorded IC50 for COc1cnc2c(-c3nc4c(s3)CC(OC)CC4)cc(C)cc2n1 (stereo not drawn) [Example 140] .
### Response 21

### Prompt Please report the recorded IC50 for COCc1cnc2c(-c3nc4c(C(C)O)c(C)c(OC)cc4s3)cc(C)cc2n1 (stereo not drawn) [Example 326] .
### Response 1.1

### Prompt Please report the recorded IC50 for COc1cnc2c(-c3nc4c(Cl)c(F)c(OC[C@@H](C)OC(=O)Nc5cnc(F)c(C)c5)cc4s3)cc(C)cc2n1 [Example 402] .
### Response 3.7

### Prompt Please report the recorded IC50 for COc1cnc2c(-c3nc4c(Cl)c(F)c(OC[C@@H](C)OC(=O)Nc5ccc(C#N)nc5)cc4s3)cc(C)cc2n1 [Example 371] .
### Response 1.8

### Prompt Please report the recorded IC50 for COCc1cnc2c(-c3nc4c(OC)c(F)c(OC)cc4s3)cc(C)cc2n1 [Example 271] .
### Response 1.5

### Prompt Please report the recorded IC50 for COc1cnc2c(-c3nc4c(Cl)c(F)c(OCCNC(=O)Nc5cccnc5)cc4s3)cc(C)cc2n1 [Example 519] .
### Response 16

### Prompt Please report the recorded IC50 for COc1cnc2c(-c3nc4c(s3)C(OC)CCC4)cc(C)cc2n1 (stereo not drawn) [Example 139] .
### Response 3.9

### Prompt Please report the recorded IC50 for COc1cnc2c(-c3nc4cc(F)c(O[C@@H](C)[C@@H](C)OC(=O)Nc5cnc(CO)nc5)cc4s3)cc(C)cc2n1 [Example 502] .
### Response 1.7

### Prompt Please report the recorded IC50 for COc1cc(C(O)C2CCOCC2)c2nc(-c3cc(C)cc4nc(OC)cnc34)sc2c1 (stereo not drawn) [Example 663] .
### Response 7

### Prompt Please report the recorded IC50 for COc1cnc2c(-c3nc4cc(F)c(OC[C@@H](C)OC(=O)Nc5ccnc(C(N)=O)c5)cc4s3)cc(C)cc2n1 [Example 444] .
### Response 0.8

### Prompt Please report the recorded IC50 for COc1cnc2c(-c3nc4c(Cl)c(F)c(OC[C@@H](C)OC(=O)Nc5ccc(Br)nc5)cc4s3)cc(C)cc2n1 [Example 403] .
### Response 1.7

### Prompt Please report the recorded IC50 for COc1cnc2c(-c3nc4cc(F)c(OC[C@@H](C)OC(=O)Nc5ccc6c(ccn6C)c5)cc4s3)cc(C)cc2n1 [Example 356] .
### Response 2.1

### Prompt Please report the recorded IC50 for Cc1cc(-c2nc3ccccc3[nH]2)c2ncc(OC(F)F)nc2c1 [Example 47] .
### Response 34

### Prompt Please report the recorded IC50 for COc1cnc2c(-c3cc4cc(OC)c(F)cc4o3)cc(CO)cc2n1 [Example 125] .
### Response 2

### Prompt Please report the recorded IC50 for COc1cnc2c(-c3nc4cc(F)c(OC[C@@H](C)OC(=O)Nc5ccc(C(=O)N6CCC[C@@H](O)C6)nc5)cc4s3)cc(C)cc2n1 [Example 485] .
### Response 1.6

### Prompt Please report the recorded IC50 for COc1cccc2nc(-c3cc(C)cc4nc(OC(F)F)cnc34)sc12 [Example 58] .
### Response 3

### Prompt Please report the recorded IC50 for COCc1cnc2c(-c3nc4cc(F)c(OC)cc4s3)cc(C)cc2n1 [Example 277] .
### Response 9

### Prompt Please report the recorded IC50 for COc1cnc2c(-c3nc4cc(F)c(O[C@@H](C)[C@@H](C)OC(=O)Nc5cnc(CCO)nc5)cc4s3)cc(C)cc2n1 [Example 565] .
### Response 3

### Prompt Please report the recorded IC50 for COCc1cnc2c(-c3nc4c(C(O)c5ccccc5)cc(OC)cc4s3)cc(C)cc2n1 (stereo not drawn) [Example 161] .
### Response 0.7

### Prompt Please report the recorded IC50 for COc1cc(CCO)c2nc(-c3cc(C)cc4nc(OC)cnc34)sc2c1 [Example 641] .
### Response 250

### Prompt Please report the recorded IC50 for COc1cnc2c(-c3nc4cc(F)c(O[C@@H](C)[C@@H](C)OC(=O)Nc5ccnc(OCCC(C)(C)O)c5)cc4s3)cc(C)cc2n1 [Example 563] .
### Response 2.8

### Prompt Please report the recorded IC50 for COc1cnc2c(-c3nc4cc(F)c(O[C@@H](C)[C@@H](C)OC(=O)Nc5cccnc5)cc4s3)cc(Cl)cc2c1 [Example 788] .
### Response 3.1

### Prompt Please report the recorded IC50 for COc1cnc2c(-c3nc4cc(F)c(OC[C@@H](C)OC(=O)Nc5ccc(C(=O)NC[C@@H](C)O)nc5)cc4s3)cc(C)cc2n1 [Example 449] .
### Response 0.3

### Prompt Please report the recorded IC50 for COc1cnc2c(-c3nc4cc(F)c(OCCOC(=O)Nc5cnc(F)c(C)c5)nc4s3)cc(C)cc2n1 [Example 811] .
### Response 1.5

### Prompt Please report the recorded IC50 for COc1cnc2c(-c3nc4cc(F)c(OC[C@@H](C)OC(=O)Nc5ccc(C(=O)NCCO)nc5)cc4s3)cc(C)cc2n1 [Example 445] .
### Response 3.2

---

- TARGET_UNDER_TEST: human PAR4 (Homo sapiens)
- Sequence (Q96RI0 18-385): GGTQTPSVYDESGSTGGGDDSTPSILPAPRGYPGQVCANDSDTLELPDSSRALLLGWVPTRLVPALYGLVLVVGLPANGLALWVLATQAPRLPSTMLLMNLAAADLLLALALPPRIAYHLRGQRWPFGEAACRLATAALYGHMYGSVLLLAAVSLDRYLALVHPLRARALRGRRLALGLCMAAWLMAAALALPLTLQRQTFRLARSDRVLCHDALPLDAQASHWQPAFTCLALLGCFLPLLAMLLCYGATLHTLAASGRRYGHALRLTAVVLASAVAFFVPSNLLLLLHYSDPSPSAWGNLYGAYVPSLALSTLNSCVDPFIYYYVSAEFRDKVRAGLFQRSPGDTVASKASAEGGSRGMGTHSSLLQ
- TEST_PROTOCOL: PAR4 FLIPR assay: antagonism of agonist-peptide-induced calcium mobilization in PAR4-expressing HEK293 cells
- CONDITION_SET: H-Ala-Phe(4-F)-[…]NH2-induced intracellular calcium mobilization, 11-point curves
Hi there, I'd appreciate the recorded IC50 for every entry that follows.
Quick note: give the figure in nM, leave out the unit.

### Prompt Please report the recorded IC50 for COc1cc(C(O)c2ccccc2)c2nc(-c3cc(C)cc4nc(OC)cnc34)sc2c1 (stereo not shown) [Example 629] .
### Response 2.2

### Prompt Please report the recorded IC50 for COc1cnc2c(-c3nc4c(Cl)c(F)c(OCc5coc(N)n5)cc4s3)cc(C)cc2n1 [Example 623] .
### Response 320

### Prompt Please report the recorded IC50 for COC(=O)c1cnc2c(-c3nc4c(C)cc(OCCNS(=O)(=O)c5ccc(F)cc5)cc4s3)cc(C)cc2n1 [Example 32] .
### Response 3

### Prompt Please report the recorded IC50 for COCc1cnc2c(-c3nc4c(C#N)cc(OC)cc4s3)cc(C)cc2n1 [Example 103] .
### Response 2.5

### Prompt Please report the recorded IC50 for Cc1cc(-c2nc3cccc(CNS(=O)(=O)c4ccccc4)c3s2)c2ncc(OC(F)F)nc2c1 [Example 66] .
### Response 28

### Prompt Please report the recorded IC50 for COc1cnc2c(-c3nc4cc(F)c(OC[C@@H](C)OC(=O)Nc5ccnc(OCCO)c5)cc4s3)cc(C)cc2n1 [Example 552] .
### Response 0.7

### Prompt Please report the recorded IC50 for COc1cnc2c(-c3nc4cc(F)c(O[C@@H](C)[C@@H](C)OC(=O)Nc5ccnc(CC(C)(C)O)c5)cc4s3)cc(C)cc2n1 [Example 561] .
### Response 53

Where do these numbers come from? They come from patent US12060347B2.
